Assign pEC50 to each entry below.
- subject of test: human LPA4 (Homo sapiens, UniProt Q99677)
- Sequence (Q99677 whole entry): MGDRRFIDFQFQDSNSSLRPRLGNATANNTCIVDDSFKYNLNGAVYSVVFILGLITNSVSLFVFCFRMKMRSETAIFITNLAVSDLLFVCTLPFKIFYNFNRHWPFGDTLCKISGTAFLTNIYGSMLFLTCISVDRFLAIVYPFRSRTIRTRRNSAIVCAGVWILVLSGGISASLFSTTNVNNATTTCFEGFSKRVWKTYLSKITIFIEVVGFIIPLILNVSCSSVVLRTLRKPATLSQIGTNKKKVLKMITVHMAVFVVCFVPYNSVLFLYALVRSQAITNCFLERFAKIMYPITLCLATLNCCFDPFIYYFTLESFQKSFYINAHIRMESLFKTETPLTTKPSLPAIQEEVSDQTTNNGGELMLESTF
- test protocol: Ca2+ mobilization assay, LPA4 in CHO cells
- condition set: CHO cells stably expressing LPA4; agonist mode
Keep it numeric: pEC50 is minus log10 of the concentration in mol/L.

Query: Consider the molecule shown here: CCCCCCCCCCCCCCCC(=O)OCC(O)COP(=O)(O)O (stereo not shown) [LPA (16:0), reference compound] What is its recorded pEC50?
Result: 6.07

Query: Similarly, CCCCCCCC/C=C\CCCCCCCC(=O)OC[C@@H](O)CC(Cl)P(=O)(O)O (mixture of isomers) [Compound 18a] ?
Result: 5.46

Query: Similarly, CCCCCCCCCCCCCCCC(=O)OC[C@@H](O)CCP(=O)([O-])O.[Na+] [Compound 20b, reference compound] ?
Result: 5.27

* * *

- subject of test: human LPA3 (Homo sapiens)
- Construct: expressed in transfected cells
- Sequence (Q9UBY5 1-353): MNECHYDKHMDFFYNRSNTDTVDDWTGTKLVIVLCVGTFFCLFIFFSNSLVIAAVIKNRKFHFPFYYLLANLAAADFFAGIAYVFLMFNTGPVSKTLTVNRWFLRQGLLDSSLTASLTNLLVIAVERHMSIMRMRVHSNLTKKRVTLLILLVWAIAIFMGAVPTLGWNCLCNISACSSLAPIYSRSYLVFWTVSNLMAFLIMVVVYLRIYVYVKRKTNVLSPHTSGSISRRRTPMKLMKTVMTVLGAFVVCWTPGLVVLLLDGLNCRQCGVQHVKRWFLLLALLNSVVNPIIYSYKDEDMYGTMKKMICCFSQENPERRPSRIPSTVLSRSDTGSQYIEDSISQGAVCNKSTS
- test protocol: Ca2+ mobilization assay, LPA3
- Assay type: cell-based
- condition set: diastereomer study, RH7777 cells; read-out: LPA3 Ki (Table 2)
result type: pKi
Keep it numeric: pKi is minus log10 of the concentration in mol/L.

Query: Consider the molecule shown here: CCCCCCCCCCCCCCCC(=O)OC[C@@H](O)C[C@@H](Br)P(=O)(O)O What is its recorded pKi?
Result: 5.74

Query: Similarly, CCCCCCCCCCCCCCCC(=O)OC[C@@H](O)C[C@H](Br)P(=O)(O)O ?
Result: 6.21

* * *

- subject of test: human LPA2 (Homo sapiens, UniProt Q9HBW0)
- Construct: expressed in transfected cells
- Sequence (Q9HBW0 whole entry): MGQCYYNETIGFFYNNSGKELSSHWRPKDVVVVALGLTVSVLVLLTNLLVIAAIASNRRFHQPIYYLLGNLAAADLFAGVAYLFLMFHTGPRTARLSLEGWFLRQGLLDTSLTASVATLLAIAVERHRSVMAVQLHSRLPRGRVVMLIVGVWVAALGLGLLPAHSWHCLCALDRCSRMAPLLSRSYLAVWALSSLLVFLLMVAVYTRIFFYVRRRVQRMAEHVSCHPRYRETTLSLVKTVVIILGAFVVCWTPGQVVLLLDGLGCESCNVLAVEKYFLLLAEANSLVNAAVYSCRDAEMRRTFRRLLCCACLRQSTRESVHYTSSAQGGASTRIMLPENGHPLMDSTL
- test protocol: Ca2+ mobilization assay, LPA2
- Format: cell-based
- condition set: diastereomer study, RH7777 cells; read-out: LPA2 Ki (Table 2)
Assign pKi to each entry below.
Keep it numeric: pKi is minus log10 of the concentration in mol/L.

Query: Consider the compound shown here: CCCCCCCCCCCCCCCC(=O)OC[C@@H](O)CC(Br)P(=O)(O)O (mixture of isomers) [Compound 1] What is its recorded pKi?
Result: 6.61

Query: Similarly, CCCCCCCCCCCCCCCC(=O)OC[C@@H](O)C[C@H](Br)P(=O)(O)O [Compound 1b] ?
Result: 6.62

Query: Similarly, CCCCCCCCCCCCCCCC(=O)OC[C@@H](O)C[C@@H](Br)P(=O)(O)O [Compound 1a] ?
Result: 6.60

* * *

- subject of test: PPARγ (Homo sapiens)
- Construct: expressed in transfected cells; host or cells: CV-1 cells, transient (LipofectAMINE 2000)
- Sequence (P37231 whole entry, species assumed): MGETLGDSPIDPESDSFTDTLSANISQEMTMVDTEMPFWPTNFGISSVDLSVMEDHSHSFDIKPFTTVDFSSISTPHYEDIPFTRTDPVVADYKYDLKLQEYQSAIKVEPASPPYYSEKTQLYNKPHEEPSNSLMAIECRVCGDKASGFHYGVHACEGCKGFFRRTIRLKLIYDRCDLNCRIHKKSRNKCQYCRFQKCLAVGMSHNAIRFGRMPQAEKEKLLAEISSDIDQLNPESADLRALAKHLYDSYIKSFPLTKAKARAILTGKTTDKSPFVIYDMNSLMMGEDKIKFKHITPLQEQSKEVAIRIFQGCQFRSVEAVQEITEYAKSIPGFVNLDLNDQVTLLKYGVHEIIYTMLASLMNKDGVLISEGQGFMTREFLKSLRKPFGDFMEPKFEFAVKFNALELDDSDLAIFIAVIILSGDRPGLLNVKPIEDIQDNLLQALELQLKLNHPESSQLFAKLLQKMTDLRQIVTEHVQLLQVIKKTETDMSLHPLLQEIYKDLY
- test protocol: PPARγ activation assay (PPRE-Acox-Rluc reporter in CV-1 cells)
- Assay type: cell-based
- condition set: 10 μM test analogue, 20 h
result type: PPARγ (PPRE luciferase reporter gene assay)

>  <compound>
CCCCCCCC/C=C\CCCCCCCC(=O)OC[C@@H](O)COP(=O)(O)O [LPA (18:1), reference compound]

>  <val>
Ago-

$$$$

* * *

Assign pKi to each entry below.
- subject of test: human LPA2 (Homo sapiens, UniProt Q9HBW0)
- Construct: expressed in transfected cells
- test protocol: Ca2+ mobilization assay, LPA2
- Assay type: cell-based
- condition set: antagonist mode vs 10 nM LPA; read-out: LPA2 (Ki)
Keep it numeric: pKi is minus log10 of the concentration in mol/L.

Query: Consider the compound shown here: CCCCCCCCCCCCCCCC(=O)OC[C@@H](O)CC(Cl)P(=O)(O)O (mixture of isomers) [Compound 18b] What is its recorded pKi?
Result: 6.37

Query: Similarly, CCCCCCCC/C=C\CCCCCCCC(=O)OC[C@@H](O)CC(Cl)P(=O)(O)O (mixture of isomers) [Compound 18a] ?
Result: 6.07

Query: Similarly, CCCCCCCCCCCCCCCC(=O)OC[C@@H](O)CC(Br)P(=O)(O)O (mixture of isomers) ?
Result: 6.52

Query: Similarly, CCCCCCCCCCCCCCCC(=O)OC[C@@H](O)CCP(=O)([O-])O.[Na+] [Compound 20b, reference compound] ?
Result: 5.89

Query: Similarly, CCCCCCCC/C=C\CCCCCCCC(=O)OC[C@@H](O)CC(Br)P(=O)(O)O (mixture of isomers) [Compound 19a] ?
Result: 6.76

* * *

- subject of test: UniProtKB Q9H1C0
- Sequence (Q9H1C0 whole entry): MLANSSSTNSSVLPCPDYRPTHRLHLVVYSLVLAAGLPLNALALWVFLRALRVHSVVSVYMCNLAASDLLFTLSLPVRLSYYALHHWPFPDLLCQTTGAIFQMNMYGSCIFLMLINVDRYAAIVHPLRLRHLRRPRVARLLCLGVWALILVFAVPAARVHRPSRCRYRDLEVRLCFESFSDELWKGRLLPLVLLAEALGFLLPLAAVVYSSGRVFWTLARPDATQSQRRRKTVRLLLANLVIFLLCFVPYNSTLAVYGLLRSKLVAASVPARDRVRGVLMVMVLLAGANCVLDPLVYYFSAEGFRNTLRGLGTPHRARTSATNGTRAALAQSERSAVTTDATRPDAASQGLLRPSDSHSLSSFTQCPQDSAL
result type: pKi
Keep it numeric: pKi is minus log10 of the concentration in mol/L.

Query: Consider the compound shown here: CCCCCCCCCCCCCCCC(=O)OC[C@@H](O)C[C@H](Br)P(=O)(O)O What is its recorded pKi?
Result: 6.42

* * *

- subject of test: human LPA2 (Homo sapiens)
- test protocol: Ca2+ mobilization assay, LPA2
- condition set: RH7777 cells stably expressing LPA2; agonist mode
pEC50: −log10 of the molar value.
Assign pEC50 to each entry below.

Query: Consider the compound shown here: CCCCCCCCCCCCCCCC(=O)OCC(O)CC(O)P(=O)([O-])O.[Na+] (centres unmarked) [Compound 24a, reference compound] What is its recorded pEC50?
Result: < 4.52

Query: Similarly, CCCCCCCCCCCCCCCC(=O)OC[C@@H](O)CCP(=O)([O-])O.[Na+] [Compound 20b, reference compound] ?
Result: < 4.52

Query: Similarly, CCCCCCCCCCCCCCCC(=O)OCC(O)CC(O)P(=O)([O-])O.[Na+] (centres unmarked) [Compound 24b, reference compound] ?
Result: < 4.52

Query: Similarly, CCCCCCCCCCCCCCCC(=O)OCC(O)CC(O)P(=O)([O-])O.[Na+] (mixture of isomers) [Compound 22b, reference compound] ?
Result: < 4.52

Query: Similarly, CCCCCCCCCCCCCCCC(=O)OC[C@@H](O)CC(Cl)P(=O)(O)O (mixture of isomers) [Compound 18b] ?
Result: < 4.52

Query: Similarly, CCCCCCCC/C=C\CCCCCCCC(=O)OC[C@@H](O)CC(Br)P(=O)(O)O (mixture of isomers) [Compound 19a] ?
Result: < 4.52

Query: Similarly, CCCCCCCC/C=C\CCCCCCCC(=O)OCC(O)CCP(=O)(O)O (centres unmarked) [Compound 20a, reference compound] ?
Result: < 6.55

Query: Similarly, CCCCCCCC/C=C\CCCCCCCC(=O)OC[C@@H](O)CC(Cl)P(=O)(O)O (mixture of isomers) [Compound 18a] ?
Result: < 4.52

Query: Similarly, CCCCCCCCC=CCCCCCCCC(=O)OCC(O)CC(O)P(=O)([O-])O.[Na+] (mixture of isomers) [Compound 22a, reference compound] ?
Result: < 5.67

Query: Similarly, CCCCCCCCCCCCCCCC(=O)OC[C@@H](O)CC(Br)P(=O)(O)O (mixture of isomers) ?
Result: < 4.52

Query: Similarly, CCCCCCCCCCCCCCCC(=O)OCC(O)COP(=O)(O)O (centres unmarked) [LPA (16:0), reference compound] ?
Result: 7.26

* * *

- subject of test: human LPA2 (Homo sapiens, UniProt Q9HBW0)
- Construct: expressed in transfected cells
- test protocol: Ca2+ mobilization assay, LPA2
- Type: cell-based
- condition set: antagonist mode vs 10 nM LPA; PA = partial antagonist; read-out: LPA2 IC50
result type: pIC50
Keep it numeric: pIC50 is minus log10 of the concentration in mol/L.

Query: Give recorded pIC50 with human LPA2 (Homo sapiens, UniProt Q9HBW0) for the following molecule: CCCCCCCC/C=C\CCCCCCCC(=O)OC[C@@H](O)CC(Cl)P(=O)(O)O (mixture of isomers) [Compound 18a]
Result: 5.77

Query: Similarly, CCCCCCCCCCCCCCCC(=O)OC[C@@H](O)CC(Cl)P(=O)(O)O (mixture of isomers) [Compound 18b] ?
Result: 6.07

Query: Similarly, CCCCCCCCCCCCCCCC(=O)OC[C@@H](O)CC(Br)P(=O)(O)O (mixture of isomers) [Compound 1] ?
Result: 5.85

Query: Similarly, CCCCCCCCCCCCCCCC(=O)OC[C@@H](O)CCP(=O)([O-])O.[Na+] [Compound 20b, reference compound] ?
Result: 5.59

Query: Similarly, CCCCCCCC/C=C\CCCCCCCC(=O)OC[C@@H](O)CC(Br)P(=O)(O)O (mixture of isomers) [Compound 19a] ?
Result: 6.09

Data credit: patent US8722649B2
